Data origin: patent US20070196376A1

# TARGET OR SYSTEM: T1, Recombinant human IGF-II (insulin-like growth factor-II) (human, UniProt P01344 25-91)
# T1 construct: Bought; also called IGF2; IGF-2
# ASSAY DETAILS: limited antigen ELISA, supernatant 1:25
Please respond with reported LA OD, IGF2 4 ng/ml for every item in the list.
Respond numerically; units are OD 450 nm and should not be typed.

-- ask Consider the binder shown here: mAb 7.251.3 (ATCC Accession Number PTA-7422) (antibody, V domains shown, Fully human, lambda light chain (V1-13/JL2)) VH: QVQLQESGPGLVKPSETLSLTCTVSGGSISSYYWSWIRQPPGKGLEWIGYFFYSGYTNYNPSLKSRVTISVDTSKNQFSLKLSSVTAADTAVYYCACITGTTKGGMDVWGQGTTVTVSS VL: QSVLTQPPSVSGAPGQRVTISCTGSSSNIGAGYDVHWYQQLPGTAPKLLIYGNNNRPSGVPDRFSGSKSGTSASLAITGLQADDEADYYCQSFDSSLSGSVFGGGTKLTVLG What is its recorded LA OD, IGF2 4 ng/ml?
-- reply 1.53

-- ask Consider the binder shown here: mAb 7.158.2 (antibody, V domains shown, also called 7.158.1; 7_158_1) VH: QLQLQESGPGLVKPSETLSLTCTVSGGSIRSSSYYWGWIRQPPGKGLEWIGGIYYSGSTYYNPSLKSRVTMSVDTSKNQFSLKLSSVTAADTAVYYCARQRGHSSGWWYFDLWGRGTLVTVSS VL: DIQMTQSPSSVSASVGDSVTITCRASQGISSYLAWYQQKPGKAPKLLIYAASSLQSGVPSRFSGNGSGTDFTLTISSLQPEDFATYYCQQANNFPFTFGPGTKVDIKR What is its recorded LA OD, IGF2 4 ng/ml?
-- reply 2.46

-- ask Consider the binder shown here: mAb 7.159.2 (ATCC Accession Number PTA-7424) (antibody, V domains shown, Fully human, lambda light chain (V1-19/JL2); also called 7.159.1; 7_159_1) VH: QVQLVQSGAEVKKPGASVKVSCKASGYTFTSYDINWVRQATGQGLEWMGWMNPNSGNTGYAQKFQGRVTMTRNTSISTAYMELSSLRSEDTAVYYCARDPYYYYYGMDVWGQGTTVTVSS VL: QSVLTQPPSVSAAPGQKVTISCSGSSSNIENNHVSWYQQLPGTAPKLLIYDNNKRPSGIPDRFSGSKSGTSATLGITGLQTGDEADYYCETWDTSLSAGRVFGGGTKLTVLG What is its recorded LA OD, IGF2 4 ng/ml?
-- reply 2.47

-- ask Consider the binder shown here: mAb 7.34.1 (ATCC Accession Number PTA-7423) (antibody, V domains shown, Fully human, lambda light chain (V1-13/JL2)) VH: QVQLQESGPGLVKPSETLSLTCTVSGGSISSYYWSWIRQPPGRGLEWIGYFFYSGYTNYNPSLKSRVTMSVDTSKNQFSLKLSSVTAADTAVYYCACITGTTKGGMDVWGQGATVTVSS VL: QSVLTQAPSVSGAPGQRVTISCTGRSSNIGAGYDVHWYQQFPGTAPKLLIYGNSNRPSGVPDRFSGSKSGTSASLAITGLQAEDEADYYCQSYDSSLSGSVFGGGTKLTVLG What is its recorded LA OD, IGF2 4 ng/ml?
-- reply 1.84
